Values were extracted from patent US7411083B2.

ASSAYED SYSTEM: recombinant human plasminogen activator inhibitor-1 (PAI-1) (Homo sapiens, UniProt P05121)
Construct: purchased Molecular Innovations, Royal Oak, Mich
Sequence (P05121 24-402): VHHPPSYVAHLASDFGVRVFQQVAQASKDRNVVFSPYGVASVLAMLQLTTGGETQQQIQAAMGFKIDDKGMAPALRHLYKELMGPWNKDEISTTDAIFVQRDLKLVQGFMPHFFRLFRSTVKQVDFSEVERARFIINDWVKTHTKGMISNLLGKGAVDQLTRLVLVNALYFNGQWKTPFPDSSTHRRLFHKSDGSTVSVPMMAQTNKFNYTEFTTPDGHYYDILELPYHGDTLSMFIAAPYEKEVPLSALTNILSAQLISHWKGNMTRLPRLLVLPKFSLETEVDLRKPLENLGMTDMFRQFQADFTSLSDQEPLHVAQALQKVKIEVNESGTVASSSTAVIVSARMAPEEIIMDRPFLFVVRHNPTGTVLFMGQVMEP
TEST DETAILS: Screening for PAI-1 inhibition (residual tPA activity, Spectrozyme-tPA chromogenic substrate)
Assay type: biochemical
RUN PARAMETERS: test compound at 100 Um; pH 6.6 buffer, 140 nM PAI-1, 70 nM tPA
ASSAY METRIC: inhibition at 100 µM (%)

1. O=C(O)CO/N=C/c1ccc(OCc2cccc(C(F)(F)F)c2)c(OCc2cccc(C(F)(F)F)c2)c1
2. O=C(O)CO/N=C/c1ccc(C#CCOc2ccc(Br)cc2)cc1
3. CC(C)(C)c1ccc(COc2ccc(-c3ccc(/C=N/OCC(=O)O)cc3)cc2)cc1
# rank above entries by inhibition at 100 µM (max first, min last) A complete answer lists every label in the requested sequence.
1, 2, 3

1. O=C(O)CO/N=C/c1ccc(C#CCOc2cc(C(F)(F)F)cc(C(F)(F)F)c2)cc1
2. CC(C)(C)c1ccc(COc2cc(/C=N/OCC(=O)O)cc(OCc3ccc(C(C)(C)C)cc3)c2)cc1
Between the two listed entries 1 and 2 , which has its inhibition at 100 µM at the higher number? Your answer should be the label attached to the chosen record.
1

1. C#CCn1cc(/C=N/OCC(=O)O)c2cc(OCc3ccc(Cl)c(Cl)c3)ccc21
2. CC(C)(C)c1ccc(COc2cccc(/C=N/OCC(=O)O)c2OCc2ccc(C(C)(C)C)cc2)cc1
Kindly compare 1 with 2 and tell me which has the lower inhibition at 100 µM figure. Your answer should be the label attached to the chosen record.
2

* * *

ASSAYED SYSTEM: recombinant human plasminogen activator inhibitor-1 (PAI-1) (Homo sapiens, UniProt P05121)
Construct: purchased Molecular Innovations, Royal Oak, Mich
TEST DETAILS: Screening for PAI-1 inhibition (residual tPA activity, Spectrozyme-tPA chromogenic substrate)
Type: biochemical
RUN PARAMETERS: test compound at 100 Um; pH 6.6 buffer, 140 nM PAI-1, 70 nM tPA
ASSAY METRIC: inhibition at 100 µM (%)

O=C(O)CO/N=C/c1cccc(-c2ccc(OCc3ccccc3)cc2)c1 : 53
CC(C)(C)c1ccc(OCC#Cc2ccc(/C=N/OCC(=O)O)cc2)cc1 : 51
O=C(O)CO/N=C/c1cn(Cc2ccccc2)c2ccc(OCc3ccc(Cl)cc3)cc12 : 86
O=C(O)CO/N=C/c1cn(Cc2ccccc2)c2ccc(OCc3cccc(Cl)c3)cc12 : 84
CCn1cc(/C=N/OCC(=O)O)c2cc(OCc3ccccc3Cl)ccc21 : 70

* * *

ASSAYED SYSTEM: recombinant human plasminogen activator inhibitor-1 (PAI-1) (Homo sapiens, UniProt P05121)
Construct: purchased Molecular Innovations, Royal Oak, Mich
TEST DETAILS: Screening for PAI-1 inhibition (residual tPA activity, Spectrozyme-tPA chromogenic substrate)
Type: biochemical
RUN PARAMETERS: test compound at 100 Um; pH 6.6 buffer, 140 nM PAI-1, 70 nM tPA
ASSAY METRIC: inhibition at 100 µM (%)

O=C(O)CO/N=C/c1ccc(-c2cccc(OCc3cccc(C(F)(F)F)c3)c2)cc1 : 74
O=C(O)CO/N=C/c1cn(Cc2ccccc2)c2ccc(OCc3ccccc3Cl)cc12 : 82
O=C(O)CO/N=C/c1cccc(-c2cccc(OCc3cccc(Br)c3)c2)c1 : 84
O=C(O)CO/N=C/c1ccc(OCc2ccc(Br)cc2)c(OCc2ccc(Br)cc2)c1 : 87
O=C(O)CO/N=C/c1ccc(-c2cccc(OCc3ccccc3)c2)cc1 : 85
Cn1cc(/C=N/OCC(=O)O)c2cc(OCc3ccc(C(F)(F)F)cc3)ccc21 : 82
O=C(O)CO/N=C/c1ccc(-c2cccc(OCc3cccc(Cl)c3)c2)cc1 : 76
O=C(O)CO/N=C/c1cc(OCc2cccc(Cl)c2)ccc1OCc1cccc(Cl)c1 : 85
Cc1cccc(COc2cc(/C=N/OCC(=O)O)cc(OCc3cccc(C)c3)c2)c1 : 88
O=C(O)CO/N=C/c1ccc(OCc2ccc(C(F)(F)F)cc2)c(OCc2ccc(C(F)(F)F)cc2)c1 : 93
Cc1ccc(COc2ccc(/C=N/OCC(=O)O)c(OCc3ccc(C)cc3)c2)cc1 : 87

* * *

ASSAYED SYSTEM: recombinant human plasminogen activator inhibitor-1 (PAI-1) (Homo sapiens)
Construct: purchased Molecular Innovations, Royal Oak, Mich
TEST DETAILS: Screening for PAI-1 inhibition (residual tPA activity, Spectrozyme-tPA chromogenic substrate)
Format: biochemical
RUN PARAMETERS: test compound at 100 Um; pH 6.6 buffer, 140 nM PAI-1, 70 nM tPA
Experimental: Screening for PAI-1 inhibition. Test compounds are dissolved in DMSO at a final concentration of 10 Mm, then diluted 100× in physiologic buffer. […] Following the second incubation, Spectrozyme-Tpa (American Diagnostica, Greenwich, Conn.), a chromogenic substrate for Tpa, is added and absorbance read at 405 nm at 0 and 60 minutes. […]
ASSAY METRIC: inhibition at 100 µM (%)

Cn1cc(/C=N/OCC(=O)O)c2cc(OCc3ccc(C(C)(C)C)cc3)ccc21 : 88
O=C(O)CO/N=C/c1cccc(-c2cccc(OCc3c(Cl)cccc3Cl)c2)c1 : 88
Cc1ccc(COc2cc(/C=N/OCC(=O)O)cc(OCc3ccc(C)cc3)c2)cc1 : 90
Cc1cccc(COc2cccc(/C=N/OCC(=O)O)c2OCc2cccc(C)c2)c1 : 88

* * *

ASSAYED SYSTEM: recombinant human plasminogen activator inhibitor-1 (PAI-1) (Homo sapiens, UniProt P05121)
Construct: purchased Molecular Innovations, Royal Oak, Mich
TEST DETAILS: Screening for PAI-1 inhibition (residual tPA activity, Spectrozyme-tPA chromogenic substrate)
Type: biochemical
RUN PARAMETERS: test compound at 100 Um; pH 6.6 buffer, 140 nM PAI-1, 70 nM tPA
ASSAY METRIC: inhibition at 100 µM (%)

O=C(O)CO/N=C/c1cc(OCc2cccc(C(F)(F)F)c2)cc(OCc2cccc(C(F)(F)F)c2)c1 : 91
O=C(O)CO/N=C/c1ccc(OCc2ccc(F)cc2)c(OCc2ccc(F)cc2)c1 : 91
Cc1cccc(COc2ccc(/C=N/OCC(=O)O)cc2OCc2cccc(C)c2)c1 : 92

* * *

ASSAYED SYSTEM: recombinant human plasminogen activator inhibitor-1 (PAI-1) (Homo sapiens)
Construct: purchased Molecular Innovations, Royal Oak, Mich
TEST DETAILS: Screening for PAI-1 inhibition (residual tPA activity, Spectrozyme-tPA chromogenic substrate)
Type: biochemical
RUN PARAMETERS: test compound at 100 Um; pH 6.6 buffer, 140 nM PAI-1, 70 nM tPA
ASSAY METRIC: inhibition at 100 µM (%)

O=C(O)CO/N=C/c1cc(OCc2cccc(C(F)(F)F)c2)ccc1OCc1cccc(C(F)(F)F)c1 : 100
O=C(O)CO/N=C/c1cc(OCc2ccc(C(F)(F)F)cc2)cc(OCc2ccc(C(F)(F)F)cc2)c1 : 93
O=C(O)CO/N=C/c1ccc(-c2cccc(OCc3ccc(Cl)c(Cl)c3)c2)cc1 : 65
C=CCn1cc(/C=N/OCC(=O)O)c2cc(OCc3cccc(C(F)(F)F)c3)ccc21 : 80
O=C(O)CO/N=C/c1cc(OCc2ccc(Br)cc2)cc(OCc2ccc(Br)cc2)c1 : 100
Cc1ccc(COc2ccc(OCc3ccc(C)cc3)c(/C=N/OCC(=O)O)c2)cc1 : 76
Cc1ccc(COc2cccc(-c3cccc(/C=N/OCC(=O)O)c3)c2)cc1 : 83
C#CCn1cc(/C=N/OCC(=O)O)c2cc(OCc3ccc(Cl)cc3)ccc21 : 83
O=C(O)CO/N=C/c1cn(Cc2ccccc2)c2ccc(OCc3ccc(C(F)(F)F)cc3)cc12 : 82
O=C(O)CO/N=C/c1cccc(-c2ccc(OCc3cc(C(F)(F)F)cc(C(F)(F)F)c3)cc2)c1 : 73
Cc1cccc(COc2cccc(-c3ccc(/C=N/OCC(=O)O)cc3)c2)c1 : 63
Cn1cc(/C=N/OCC(=O)O)c2cc(OCc3cccc(Br)c3)ccc21 : 70
O=C(O)CO/N=C/c1cc(OCc2cccc(Br)c2)cc(OCc2cccc(Br)c2)c1 : 87
CC(C)(C)c1ccc(COc2ccc(/C=N/OCC(=O)O)cc2OCc2ccc(C(C)(C)C)cc2)cc1 : 65
Cc1ccc(COc2ccc3c(c2)c(/C=N/OCC(=O)O)cn3Cc2ccccc2)cc1 : 80
